Substrate: Cc1cc(=O)oc2cc(O[C@@H]3OC[C@@H](O)[C@H](O)[C@H]3O)ccc12
assay.method.text: galactosyltransferase assay, HPLC-UV
Type: biochemical, Homo sapiens
condition.label: apparent, fixed 1 mM UDP-Gal, 10 mM MnCl2, 100 mM sodium cacodylate pH 7.0, 37 °C
measured.endpoint: kcat (s⁻¹)
Write the answer as a number in s⁻¹, unit excluded.

Example proteins with recorded kcat:
protein	unit.symbol	kcat
hβ4GalT7 (GST-β4GalT7) (Homo sapiens; R226A) (protein, truncated soluble form lacking the first 60 N-terminal amino acids (transmembrane domain and part of stem), GST fusion (tag kept), pET-41a(+), E. coli BL21(DE3), glutathione-Sepharose purified) VRGQGQETSGPPRACPPEPPPEHWEEDASWGPHRLAVLVPFRERFEELLVFVPHMRRFLSRKKIRHHIYVLNQVDHFRFNRAALINVGFLESSNSTDYIAMHDVDLLPLNEELDYGFPEAGPFHVASPELHPLYHYKTYVGGILLLSKQHYRLCNGMSNRFWGWGAEDDEFYRRIKGAGLQLFRPSGITTGYKTFRHLHDPAWRKRDQKRIAAQKQEQFKVDREGGLNTVKYHVASRTALSVGGAPCTVLNIMLDCDKTATPWCTFS	s⁻¹	0.893
hβ4GalT7 (GST-β4GalT7) (Homo sapiens) (protein, truncated soluble form lacking the first 60 N-terminal amino acids (transmembrane domain and part of stem), GST fusion (tag kept), pET-41a(+), E. coli BL21(DE3), glutathione-Sepharose purified) VRGQGQETSGPPRACPPEPPPEHWEEDASWGPHRLAVLVPFRERFEELLVFVPHMRRFLSRKKIRHHIYVLNQVDHFRFNRAALINVGFLESSNSTDYIAMHDVDLLPLNEELDYGFPEAGPFHVASPELHPLYHYKTYVGGILLLSKQHYRLCNGMSNRFWGWGREDDEFYRRIKGAGLQLFRPSGITTGYKTFRHLHDPAWRKRDQKRIAAQKQEQFKVDREGGLNTVKYHVASRTALSVGGAPCTVLNIMLDCDKTATPWCTFS	s⁻¹	1.51
hβ4GalT7 (GST-β4GalT7) (Homo sapiens; R270A) (protein, truncated soluble form lacking the first 60 N-terminal amino acids (transmembrane domain and part of stem), GST fusion (tag kept), pET-41a(+), E. coli BL21(DE3), glutathione-Sepharose purified) VRGQGQETSGPPRACPPEPPPEHWEEDASWGPHRLAVLVPFRERFEELLVFVPHMRRFLSRKKIRHHIYVLNQVDHFRFNRAALINVGFLESSNSTDYIAMHDVDLLPLNEELDYGFPEAGPFHVASPELHPLYHYKTYVGGILLLSKQHYRLCNGMSNRFWGWGREDDEFYRRIKGAGLQLFRPSGITTGYKTFRHLHDPAWRKRDQKAIAAQKQEQFKVDREGGLNTVKYHVASRTALSVGGAPCTVLNIMLDCDKTATPWCTFS	s⁻¹	0.773
hβ4GalT7 (GST-β4GalT7) (Homo sapiens; Y196F) (protein, truncated soluble form lacking the first 60 N-terminal amino acids (transmembrane domain and part of stem), GST fusion (tag kept), pET-41a(+), E. coli BL21(DE3), glutathione-Sepharose purified) VRGQGQETSGPPRACPPEPPPEHWEEDASWGPHRLAVLVPFRERFEELLVFVPHMRRFLSRKKIRHHIYVLNQVDHFRFNRAALINVGFLESSNSTDYIAMHDVDLLPLNEELDYGFPEAGPFHVASPELHPLYHFKTYVGGILLLSKQHYRLCNGMSNRFWGWGREDDEFYRRIKGAGLQLFRPSGITTGYKTFRHLHDPAWRKRDQKRIAAQKQEQFKVDREGGLNTVKYHVASRTALSVGGAPCTVLNIMLDCDKTATPWCTFS	s⁻¹	0.5

Now look at this one.
[Q] Field request: kcat | item: hβ4GalT7 (GST-β4GalT7) (Homo sapiens; H195Q) (protein, truncated soluble form lacking the first 60 N-terminal amino acids (transmembrane domain and part of stem), GST fusion (tag kept), pET-41a(+), E. coli BL21(DE3), glutathione-Sepharose purified) VRGQGQETSGPPRACPPEPPPEHWEEDASWGPHRLAVLVPFRERFEELLVFVPHMRRFLSRKKIRHHIYVLNQVDHFRFNRAALINVGFLESSNSTDYIAMHDVDLLPLNEELDYGFPEAGPFHVASPELHPLYQYKTYVGGILLLSKQHYRLCNGMSNRFWGWGREDDEFYRRIKGAGLQLFRPSGITTGYKTFRHLHDPAWRKRDQKRIAAQKQEQFKVDREGGLNTVKYHVASRTALSVGGAPCTVLNIMLDCDKTATPWCTFS
[A] 1.62
